Data origin: the supplement of paper PMC10065799

Target: FGFR1 (UniProt P11362)
Sequence (P11362 whole entry, looked up): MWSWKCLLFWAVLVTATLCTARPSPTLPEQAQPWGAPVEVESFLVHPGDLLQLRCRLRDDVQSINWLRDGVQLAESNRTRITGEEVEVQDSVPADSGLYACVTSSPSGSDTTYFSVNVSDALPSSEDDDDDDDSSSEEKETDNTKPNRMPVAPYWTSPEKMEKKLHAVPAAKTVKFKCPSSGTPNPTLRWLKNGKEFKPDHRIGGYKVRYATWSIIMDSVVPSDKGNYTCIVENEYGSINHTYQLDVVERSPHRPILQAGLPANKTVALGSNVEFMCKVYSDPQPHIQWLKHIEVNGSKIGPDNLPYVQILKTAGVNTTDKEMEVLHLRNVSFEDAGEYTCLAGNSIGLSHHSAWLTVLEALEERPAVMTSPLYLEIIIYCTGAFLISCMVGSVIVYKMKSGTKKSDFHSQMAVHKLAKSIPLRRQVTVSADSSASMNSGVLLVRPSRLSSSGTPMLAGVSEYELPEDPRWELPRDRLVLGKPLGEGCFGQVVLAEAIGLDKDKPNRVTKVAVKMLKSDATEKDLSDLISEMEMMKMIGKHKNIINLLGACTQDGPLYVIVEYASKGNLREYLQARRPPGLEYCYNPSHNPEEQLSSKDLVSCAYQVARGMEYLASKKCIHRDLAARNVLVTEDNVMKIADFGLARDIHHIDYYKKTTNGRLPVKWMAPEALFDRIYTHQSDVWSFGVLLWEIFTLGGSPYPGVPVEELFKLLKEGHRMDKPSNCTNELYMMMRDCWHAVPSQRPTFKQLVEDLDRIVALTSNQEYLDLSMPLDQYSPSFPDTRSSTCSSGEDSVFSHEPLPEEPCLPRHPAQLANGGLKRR
Experiment: phosphorylation enrichment, bacterial display (enrichment ratio); higher = better substrate or ligand; peptides without Tyr show the background
Decision: phosphorylation enrichment compared against 0.8; not below it gives Met, below it gives Not met.

Study these solved cases before continuing.
hey, is phosphorylation enrichment for this one >= 0.8? CPSLPYSPVSS [CAMKK2_Y128]
Not met

And what about the sequence GDYYRYLAEVA [YWHAG_Y133] ?
Met

Okay, and SVVVPYEAPEV [TP53_Y220_P222A] ?
Not met

For HNVPICEGFAL [ACTC1_Y168_Y168C_YF] then?
Met

Quick one: NTFEKYWLFFQ [GATM_Y103_P105L_YF]
Not met

Continue with KELAPYDENCF [RPS19_Y48_W52C]
Not met

Continuing:
phosphorylation enrichment >= 0.8 for IGEGTYGVVFK [CDK2_Y15_YF] ?
Not met

---

Molecular target: FGFR3 (UniProt P22607)
Sequence (P22607 whole entry, looked up): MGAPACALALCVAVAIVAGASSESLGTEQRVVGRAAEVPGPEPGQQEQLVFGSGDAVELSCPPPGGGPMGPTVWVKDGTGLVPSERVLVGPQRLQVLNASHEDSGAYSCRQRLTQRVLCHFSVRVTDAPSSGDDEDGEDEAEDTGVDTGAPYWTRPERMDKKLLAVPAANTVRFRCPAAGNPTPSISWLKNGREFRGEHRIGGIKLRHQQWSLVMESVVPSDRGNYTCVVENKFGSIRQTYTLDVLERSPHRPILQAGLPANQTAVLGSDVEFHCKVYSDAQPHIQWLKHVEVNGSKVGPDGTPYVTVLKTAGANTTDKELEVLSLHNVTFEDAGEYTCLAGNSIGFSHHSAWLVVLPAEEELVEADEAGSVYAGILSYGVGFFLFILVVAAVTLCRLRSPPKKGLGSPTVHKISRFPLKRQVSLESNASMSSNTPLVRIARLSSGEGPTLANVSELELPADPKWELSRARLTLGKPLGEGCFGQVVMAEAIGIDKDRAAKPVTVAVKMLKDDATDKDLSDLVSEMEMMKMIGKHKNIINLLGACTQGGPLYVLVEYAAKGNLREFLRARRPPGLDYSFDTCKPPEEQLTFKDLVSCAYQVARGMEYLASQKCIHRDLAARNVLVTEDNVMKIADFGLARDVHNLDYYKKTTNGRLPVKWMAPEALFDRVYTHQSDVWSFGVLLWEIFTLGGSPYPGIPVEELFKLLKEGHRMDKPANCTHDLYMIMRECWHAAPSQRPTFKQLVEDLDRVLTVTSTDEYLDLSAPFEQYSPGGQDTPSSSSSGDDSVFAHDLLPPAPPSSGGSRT
Assay: phosphorylation enrichment, bacterial display (enrichment ratio); higher = better substrate or ligand; peptides without Tyr show the background
Parameter class (string): assigned from measured phosphorylation enrichment. Ranges: bottom bin = under 0.6, middle bin = from 0.6 up to 0.9, top bin = 0.9 and over

Take a look at these entries with their results.
Which class does MHDSNYVSKGS [PDGFRA_Y849] fall in?
bottom bin

Param item: FFSSEYHCVGG [CTSC_Y345_Y347C_YF]
top bin

Request: KPLMPYMRYSR [SMARCE1_Y73]
bottom bin

Okay, and SCPANYFAFKI [FAM3D_Y65_P60S] ?
top bin

Can you check DHTVNYVLKCR [PLEKHG4_Y1068_R1064H] next?
middle bin

And what about the sequence SVTFTYSPALN [TP53_Y126_C124Y_YF] ?
middle bin

More entries:
Which category fits this record: LLVVVYKFRCF [PSEN1_Y154_L153V_YF]
middle bin

Entry HELFVYKCDEN [DOCK3_Y548_YF] please
top bin

And what about the sequence ADYPDCKYRPR [SOX11_Y116_Y116C] ?
middle bin

Moving on to PHRSIYFSSPK [MPG_Y75_Y71H]
top bin

Here is the next sequence: ARGMEYLASQK [FGFR2_Y616]
bottom bin

---

Biological target: Grb2 SH2 (UniProt P62993)
Sequence (P62993 whole entry, looked up): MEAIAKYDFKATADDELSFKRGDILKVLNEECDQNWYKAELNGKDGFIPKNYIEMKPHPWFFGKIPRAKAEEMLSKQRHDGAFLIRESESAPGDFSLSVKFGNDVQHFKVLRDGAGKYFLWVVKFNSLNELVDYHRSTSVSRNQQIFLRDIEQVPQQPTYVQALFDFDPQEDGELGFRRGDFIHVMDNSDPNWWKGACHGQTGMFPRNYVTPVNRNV
Experiment: SH2 binding enrichment of the phosphorylated peptide, bacterial display (enrichment ratio); higher = better substrate or ligand; peptides without Tyr show the background
Reported Endpoint: SH2 binding enrichment
Give the figure by itself; no unit, no explanation.

Request the reported SH2 binding enrichment associated with FMRGMYFRMKD [PLA2G6_Y541_YF]
0.897

---

Each entry below carries its reported phosphorylation enrichment.
Test system: AncSZ
Assay: phosphorylation enrichment, bacterial display (enrichment ratio); higher = better substrate or ligand; peptides without Tyr show the background
Just the number, please, no unit after it.

Consider the following illustrative entries.
Requested field: phosphorylation enrichment. Item: EPAVLYNLKER [MYH7_Y103_D107E]
0.804

Request: MHLRQYELLGG [GNAS_Y391]
0.663

And the next one, LLKKMYLMLDN [STAT1_Y203] ?
0.883

Further, for HLAQRYLIWEC [SCN5A_Y694_R689H] ?
1.62

Quick one: SHMVDYQPYRK [TEX37_Y25]
0.759

Field entry: NTFEKYWLFFQ [GATM_Y103_P105L_YF]
1.29

Continuing:
Can you share its phosphorylation enrichment? I mean this sequence: NKYTTYLPWLP [C9orf24_Y126_R129W]
1.08

Next up: FQEPVYSVAFS [TBL1X_Y509_H504Y_YF]
4.02

What do you get for ETRWNYHFEVV [GCNT3_Y267_K266N] ?
1.38

Proceed to HAKKNYGNSSV [HDX_Y197]
0.398

What do you get for SVQIVYKPVDL [MAPT_Y627] ?
1.17

And DSFSSYCNAVA [SLC20A2_Y436_YF] ?
1.24

Now consider HTLIKYTDGDQ [PUS7L_Y94] and answer again.
1.41

Now try VHNLNYYKKTT [FGFR3_Y647_D646N] .
0.506
